Where do these numbers come from? They come from ChEMBL document CHEMBL1649414.

Below, each of the compounds is paired with its reported selectivity ratio value.
Measurement Notes: Selectivity index, ratio of IC50 for rat L6 cells to IC50 for chloroquine and pyrimethamine-resistant erythrocytic stages of Plasmodium falciparum K1
Type: toxicity, cell-based
Measurement Parameters: L6 cells versus Plasmodium falciparum K1 erythrocytic stages, read-out: Ratio IC50
Parameter Measured: selectivity ratio

{"Compound": "CON1CCN=C1Nc1ccc(Nc2ccc(NC3=NCCN3OC)cc2)cc1", "Parameter Measured": "selectivity ratio", "Test Result": 120}
{"Compound": "c1cc(Nc2ccc(NC3=NCCN3)cc2)ccc1NC1=NCCN1", "Parameter Measured": "selectivity ratio", "Test Result": 24100}
{"Compound": "c1cc(Nc2ccc(NC3=NCCS3)cc2)ccc1NC1=NCCS1", "Parameter Measured": "selectivity ratio", "Test Result": 21}
{"Compound": "CCON(CCNC(=S)Nc1ccc(Nc2ccc(NC(=S)NCCN(OCC)S(=O)(=O)c3ccccc3[N+](=O)[O-])cc2)cc1)S(=O)(=O)c1ccccc1[N+](=O)[O-]", "Parameter Measured": "selectivity ratio", "Test Result": 35}
{"Compound": "CCON1CCN=C1Nc1ccc(Nc2ccc(NC3=NCCN3OCC)cc2)cc1", "Parameter Measured": "selectivity ratio", "Test Result": 68}
{"Compound": "c1cc(Nc2ccc(NC3=NCCN3OC3CCCCO3)cc2)ccc1NC1=NCCN1OC1CCCCO1 (stereo not drawn)", "Parameter Measured": "selectivity ratio", "Test Result": 26}
{"Compound": "c1ccc(CON2CCN=C2Nc2ccc(Nc3ccc(NC4=NCCN4OCc4ccccc4)cc3)cc2)cc1", "Parameter Measured": "selectivity ratio", "Test Result": 56}
{"Compound": "ON1CCN=C1Nc1ccc(Nc2ccc(NC3=NCCN3O)cc2)cc1", "Parameter Measured": "selectivity ratio", "Test Result": 1670}
